test: qHTS of pediatric cancer cell lines to identify multiple opportunities for drug repurposing: Primary screen for NB1643 cells (AID 1347099); conditions: NB1643 neuroblastoma viability, CellTiter-Glo luminescence, 48 h; series mostly up to 46 µM; further: nearly all actives have a fitted effect of over 50% in size
Inconclusive results are not listed. The source made the active and inactive calls. The call rests on the fitted dose curve; in most records, active means well fitted cell-killing curve with a large enough effect; inconclusive means small, poorly fitted or top-dose-only effect; inactive means no such curve, though single readings can be large or run the other way.
Just give me one of these, please: 1 (active), -1 (inactive)

INSERT INTO assay_data (compound, category) VALUES
  ('Cc1nc2c([nH]1)CCN(C(=O)c1ccc(NC(=O)c3ccccc3-c3ccccc3)cc1)c1ccccc1-2', -1),
  ('c1ccc(-c2oc3ncnc(NC[C@@H]4CCCO4)c3c2-c2ccccc2)cc1', 1),
  ('CN1CCC(COc2cnc(-c3cccc(Cn4nc(-c5cccc(C#N)c5)ccc4=O)c3)nc2)CC1', -1),
  ('Nc1ncnc2c1ncn2[C@@H]1O[C@H](CO)[C@@H](O)[C@@H]1O', 1),
  ('CCCCC(C)(C)[C@H](O)C=C[C@H]1[C@H](O)CC(=O)[C@H]1CC=CCCCC(=O)O', -1),
  ('N#CC(c1ccc(Cl)cc1)c1c(Cl)cc(-n2ncc(=O)[nH]c2=O)cc1Cl (centres undefined)', 1),
  ('CC(C)c1c(C(=O)Nc2ccccc2)c(-c2ccccc2)c(-c2ccc(F)cc2)n1CC[C@H](O)C[C@@H](O)CC(=O)O', 1),
  ('CN(C)CCN(Cc1ccc(Cl)cc1)c1ccccn1', 1);

Let us examine a further case.
IN: Test call for this compound, please: C[C@]12C=CC(=O)C=C1CC[C@@H]1[C@@H]2[C@@H](O)C[C@@]2(C)[C@@H]1CC[C@]2(O)C(=O)CO
OUT: -1
